# assay.system: h-GABA-A α2β2γ1 (Homo sapiens (Human), UniProt P47869+Q8N1C3)
# assay.comment: Two-electrode voltage clamp electrophysiology in Xenopus oocytes expressing GABAA receptors
# Assay type: cell-based
# condition.summary: GABA EC20, test compound at about 30-fold its Ki α2β2γ1, at least 3 oocytes
endpoint.label: Fold increase h-GABA-A α2β2γ1 oocyte @ 30-fold Ki

compound	measured.result
C[C@@H]1N=C(c2c(F)cccc2F)c2c(ccc(Cl)c2Cl)-n2c(-c3cnn(C)c3)nnc21 [Example 53]	1.32
Cc1nnc2n1-c1ccc(Br)c(Cl)c1C(c1c(F)cccc1F)=N[C@H]2CO [Example 101]	2.19
Cc1cc(-c2nnc3n2-c2ccc(Cl)c(Cl)c2C(c2c(F)cccc2F)=N[C@H]3C)nc(C)n1 [Example 96]	1.52
C[C@@H]1N=C(c2c(F)cccc2F)c2c(ccc(C(F)(F)F)c2Cl)-n2c(CO)nnc21 [Example 103]	2.23

###

# LogSel annotations
# assay.system: human GABAA α2β2γ1 receptor (Homo sapiens (Human), UniProt P47869+Q8N1C3)
# assay.comment: Radioligand binding assay, [3H]RO7239181 competition, γ1-containing GABAA subtypes
# condition.summary: Log[Ki α1β3γ2 (nM)/Ki α2β2γ1 (nM)]

compound	LogSel
Cc1nnc2n1-c1ccccc1C(c1c(F)cccc1F)=NC2 [RE-C, reference compound]	−2.0
C[C@@H]1N=C(c2c(F)cccc2F)c2c(ccc(Cl)c2Br)-n2c(-c3cnn(C)c3)nnc21	1.33
Cc1nnc2n1-c1ccc(C(F)F)c(Cl)c1C(c1c(F)cccc1F)=N[C@H]2C	1.56
C[C@@H]1N=C(c2c(F)cccc2F)c2c(ccc(C(F)(F)F)c2Cl)-n2c(CO)nnc21	1.83

###

# assay.system: human GABAA α2β2γ1 receptor (Homo sapiens (Human), UniProt P47869+Q8N1C3)
# assay.comment: Radioligand binding assay, [3H]RO7239181 competition, γ1-containing GABAA subtypes
# condition.summary: HEK293F membranes, [3H]RO7239181 20-30 nM, mean of two determinations; read-out: Ki h-GABAA α2β2γ1
pKi: −log10 of the molar value.
endpoint.label: pKi

compound	endpoint.label	measured.result
Cc1ccc(-c2nnc3n2-c2ccc(Cl)c(Br)c2C(c2c(F)cccc2F)=N[C@H]3C)nn1 [Example 88]	pKi	7.96
Cc1nnc2n1-c1ccc(Cl)c(Cl)c1C(c1c(F)cccc1F)=N[C@H]2C [Example 82]	pKi	7.97
C[C@@H]1N=C(c2c(F)cccc2F)c2c(ccc(Cl)c2Br)-n2c(-c3cccnn3)nnc21 [Example 73]	pKi	8.06
Cc1nccc(-c2nnc3n2-c2ccc(Cl)c(Cl)c2C(c2c(F)cccc2F)=N[C@H]3C)n1 [Example 95]	pKi	7.85
C[C@@H]1N=C(c2ccccc2F)c2c(ccc(Br)c2Cl)-n2c(-c3cccnn3)nnc21 [Example 32]	pKi	7.98

###

# Ki annotations
# assay.system: human GABAA α1β3γ2 receptor (Homo sapiens (Human), UniProt P14867+P18507)
# assay.comment: Radioligand binding assay, [3H]Flumazenil competition, γ2-containing GABAA subtypes
# condition.summary: HEK293F membranes, [3H]Flumazenil 1 nM, mean of two determinations; read-out: Ki h-GABAA α1β3γ2

smiles.entry	Ki (µM)
C[C@@H]1N=C(c2ccccc2F)c2c(ccc(Br)c2Cl)-n2c(-c3cccnn3)nnc21	1.03
Cc1nnc2n1-c1ccc(I)c(Cl)c1C(c1c(F)cccc1F)=N[C@H]2C	0.278
COC[C@@H]1N=C(c2c(F)cccc2F)c2c(ccc(C(F)(F)F)c2Cl)-n2c(C)nnc21	7.34
C[C@@H]1N=C(c2c(F)cccc2F)c2c(ccc(Cl)c2Br)-n2c(-c3ccncn3)nnc21	1.87
C[C@@H]1N=C(c2c(F)cccc2F)c2c(ccc(C(F)(F)F)c2Cl)-n2cnnc21	3.53
